# Assay Procedure: Cytotoxicity against human MT4 cells assessed as decrease in cell viability after 5 days by MTT assay
# Assay type: toxicity, cell-based
Each entry below carries its recorded CC50 at 120 h.
State the answer as a number, implicitly in mg/L.

Field: example entries. Status: answers known.
{"Mol Smiles": "Cc1ccc(C(C)C)c(OCc2n[nH]c(=S)n2Cc2ccccc2)c1", "CC50 at 120 h / mg/L": 13.1}
{"Mol Smiles": "CC(=O)Nc1ccc(OCc2nnc(SCC(=O)Nc3ccc(Cl)cc3)n2Cc2ccccc2)cc1", "CC50 at 120 h / mg/L": 14}
{"Mol Smiles": "Cc1ccc(C(C)C)c(OCc2nnc(SCC(=O)Nc3ccc(Cl)cc3)n2Cc2ccccc2)c1", "CC50 at 120 h / mg/L": 65.9}
{"Mol Smiles": "Cc1ccc(C(C)C)c(OCc2nnc(SCC(=O)Nc3ccc([N+](=O)[O-])cc3)n2Cc2ccccc2)c1", "CC50 at 120 h / mg/L": 11.2}
{"Mol Smiles": "CCOC(=O)c1ccc(NC(=O)CSc2nnc(COc3ccc(NC(C)=O)cc3)n2Cc2ccccc2)cc1", "CC50 at 120 h / mg/L": 91.1}
{"Mol Smiles": "CCOC(=O)c1ccc(NC(=O)CSc2nnc(COc3cc(C)ccc3C(C)C)n2Cc2ccccc2)cc1", "CC50 at 120 h / mg/L": 19.8}
{"Mol Smiles": "O=C(CSc1nnc(COc2ccc3ccccc3c2)n1Cc1ccccc1)Nc1ccc(Br)cc1", "CC50 at 120 h / mg/L": 58}
{"Mol Smiles": "CC(=O)Nc1ccc(OCC(=O)NNC(=S)NCc2ccccc2)cc1", "CC50 at 120 h / mg/L": 83.5}
{"Mol Smiles": "Cc1ccc(C(C)C)c(OCc2nnc(SCC(=O)Nc3ccc(S(N)(=O)=O)cc3)n2Cc2ccccc2)c1", "CC50 at 120 h / mg/L": 13}
{"Mol Smiles": "CC(=O)Nc1ccc(OCc2nnc(SCC(=O)Nc3ccc([N+](=O)[O-])cc3)n2Cc2ccccc2)cc1", "CC50 at 120 h / mg/L": 105}

Quote CC50 at 120 h reported for `Cc1ccc(C(C)C)c(OCc2nnc(SCC(=O)Nc3ccc(Br)cc3)n2Cc2ccccc2)c1` please. 66.7

Quote CC50 at 120 h reported for `CC(=O)Nc1ccc(OCc2n[nH]c(=S)n2Cc2ccccc2)cc1` please. 79

====

# Assay Procedure: Selectivity index, ratio of CC50 for human MT4 cells to EC50 for HIV1 3B
# Format: toxicity, cell-based
# Run Conditions: read-out: Ratio CC50/EC50
Each entry below carries its recorded selectivity ratio.

Field: example entries. Status: answers known.
{"Mol Smiles": "Nc1ccn([C@H]2CC[C@@H](CO)O2)c(=O)n1", "Result": "> 127"}
{"Mol Smiles": "CC(=O)Nc1ccc(OCC(=O)NNC(=S)NCc2ccccc2)cc1", "Result": "< 1"}

Quote selectivity ratio reported for `CCOC(=O)c1ccc(NC(=O)CSc2nnc(COc3ccc4ccccc4c3)n2Cc2ccccc2)cc1` please. ≤ 1

Quote selectivity ratio reported for `S=c1[nH]nc(COc2ccc3ccccc3c2)n1Cc1ccccc1` please. ≤ 1

Quote selectivity ratio reported for `Cc1ccc(C(C)C)c(OCc2nnc(SCC(=O)Nc3ccc([N+](=O)[O-])cc3)n2Cc2ccccc2)c1` please. < 1

Quote selectivity ratio reported for `O=C(CSc1nnc(COc2ccc3ccccc3c2)n1Cc1ccccc1)Nc1ccc(Br)cc1` please. < 1

// provenance: ChEMBL document CHEMBL3861959
